Data origin: paper PMC9571063

Below, each entry is listed with its recorded IC50.
# System: HsCLK2 (Homo sapiens)
# Construct: purchased Eurofins (contract assay)
# Sequence (P49760 whole entry): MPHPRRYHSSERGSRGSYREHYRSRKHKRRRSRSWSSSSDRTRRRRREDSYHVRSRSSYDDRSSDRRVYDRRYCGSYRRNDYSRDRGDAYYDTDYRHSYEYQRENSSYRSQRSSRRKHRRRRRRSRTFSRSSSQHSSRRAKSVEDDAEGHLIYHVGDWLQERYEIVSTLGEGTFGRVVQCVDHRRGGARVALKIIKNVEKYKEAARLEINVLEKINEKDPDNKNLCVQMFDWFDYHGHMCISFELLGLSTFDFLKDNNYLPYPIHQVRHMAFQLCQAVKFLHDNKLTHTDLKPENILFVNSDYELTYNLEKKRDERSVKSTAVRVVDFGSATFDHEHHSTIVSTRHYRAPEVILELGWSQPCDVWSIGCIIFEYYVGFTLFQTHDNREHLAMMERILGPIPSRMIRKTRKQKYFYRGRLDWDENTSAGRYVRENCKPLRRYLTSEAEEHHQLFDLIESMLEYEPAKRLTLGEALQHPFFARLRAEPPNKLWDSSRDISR
# Assay notes: kinase inhibition study by Eurofins
# Type: biochemical
# Test settings: duplicate
Recorded endpoint: IC50 (nM)

>  <Compound>
O=[N+]([O-])c1cc(CO)ccc1-n1cc(COc2cccc3cnc(Nc4cccc(Cl)c4)nc23)nn1 [12e]

>  <Recorded endpoint>
IC50

>  <Measurement unit>
nM

>  <Measured result>
50

$$$$
>  <Compound>
O=C(O)c1ccc(-n2cc(COc3cccc4cnc(Nc5cccc(Cl)c5)nc34)nn2)c([N+](=O)[O-])c1 [12g]

>  <Recorded endpoint>
IC50

>  <Measurement unit>
nM

>  <Measured result>
28

$$$$
>  <Compound>
N[C@H]1CC[C@@H](n2cc(COc3cccc4cnc(Nc5cc(Cl)cc(Cl)c5)nc34)nn2)CC1 [16b]

>  <Recorded endpoint>
IC50

>  <Measurement unit>
nM

>  <Measured result>
20

$$$$
>  <Compound>
Cc1ccc(-n2cc(COc3cccc4cnc(Nc5cc(Cl)cc(Cl)c5)nc34)nn2)c([N+](=O)[O-])c1

>  <Recorded endpoint>
IC50

>  <Measurement unit>
nM

>  <Measured result>
97

$$$$

* * *

# Assay notes: cytotoxic assay, nuclei count (Hoechst, HCS)
# Format: cell-based
# Test settings: human, HCT116 cells (colorectal adenocarcinoma); 48 h treatment; read-out: Cytotoxic studies IC50 HCT116
Recorded endpoint: IC50 at 48 h

>  <Molecule>
O=[N+]([O-])c1cc(O)ccc1-n1cc(COc2cccc3cnc(Nc4cccc(Cl)c4)nc23)nn1 [12c]

>  <Recorded endpoint>
IC50 at 48 h

>  <Measured result>
1.3 µM

$$$$
>  <Molecule>
N[C@H]1CC[C@@H](n2cc(COc3cccc4cnc(Nc5cc(Cl)cc(Cl)c5)nc34)nn2)CC1 [16b]

>  <Recorded endpoint>
IC50 at 48 h

>  <Measured result>
2.4 µM

$$$$
>  <Molecule>
O=C(O)c1ccc(-n2cc(COc3cccc4cnc(Nc5cccc(Cl)c5)nc34)nn2)c([N+](=O)[O-])c1 [12g]

>  <Recorded endpoint>
IC50 at 48 h

>  <Measured result>
> 25 µM

$$$$
>  <Molecule>
N[C@H]1CC[C@H](n2cc(COc3cccc4cnc(Nc5cccc(Cl)c5)nc34)nn2)CC1 [19a]

>  <Recorded endpoint>
IC50 at 48 h

>  <Measured result>
7 µM

$$$$
>  <Molecule>
Cc1ccc(-n2cc(COc3cccc4cnc(Nc5ccccc5)nc34)nn2)c([N+](=O)[O-])c1

>  <Recorded endpoint>
IC50 at 48 h

>  <Measured result>
7 µM

$$$$
>  <Molecule>
CC(C)(C)OC(=O)N[C@H]1CC[C@@H](n2cc(COc3cccc4cnc(Nc5cccc(Cl)c5)nc34)nn2)CC1 [15a]

>  <Recorded endpoint>
IC50 at 48 h

>  <Measured result>
7 µM

$$$$
>  <Molecule>
O=[N+]([O-])c1cc(CO)ccc1-n1cc(COc2cccc3cnc(Nc4cccc(Cl)c4)nc23)nn1 [12e]

>  <Recorded endpoint>
IC50 at 48 h

>  <Measured result>
3 µM

$$$$
>  <Molecule>
O=[N+]([O-])c1cc(Br)ccc1-n1cc(COc2cccc3cnc(Nc4cccc(Cl)c4)nc23)nn1 [12d]

>  <Recorded endpoint>
IC50 at 48 h

>  <Measured result>
> 25 µM

$$$$
>  <Molecule>
CC(C)(C)OC(=O)N[C@H]1CC[C@@H](n2cc(COc3cccc4cnc(Nc5cc(Cl)cc(Cl)c5)nc34)nn2)CC1 [15b]

>  <Recorded endpoint>
IC50 at 48 h

>  <Measured result>
> 25 µM

$$$$
>  <Molecule>
COC(=O)c1ccc(-n2cc(COc3cccc4cnc(Nc5cccc(Cl)c5)nc34)nn2)c([N+](=O)[O-])c1 [12f]

>  <Recorded endpoint>
IC50 at 48 h

>  <Measured result>
> 25 µM

$$$$
>  <Molecule>
Cc1ccc(-n2cc(COc3cccc4cnc(Nc5cc(Cl)cc(Cl)c5)nc34)nn2)c([N+](=O)[O-])c1

>  <Recorded endpoint>
IC50 at 48 h

>  <Measured result>
> 25 µM

$$$$
